Experiment: Assessment of solubility (McIlvaine buffers, 24 h shake, UPLC-UV)
Format: physicochemical
Details: pH 2.2, aqueous buffer, kinetic from dmso stock
Procedure: Solubility is measured by the following method. 100 uL, 10 mM DMSO stock solution of each compound is prepared in a 96 well plate format. The experiment is done in single determination at 3 pH values (2.2, 4.5 and 6.8). For each pH and one reference, 40 uL of each compound is needed. McIlvaine pH 2.2: To 2.076 g citric acid monohydrate and 0.043 g Na2HPO4×2H2O add 100 ml deionized water […] The samples are measured with UPLC-UV using the chromatographic method described below. […]
Binning of solubility at 24 h into classes: interval 1: < 90 µg/mL; interval 2: ≥ 90 µg/mL and < 100 µg/mL; interval 3: ≥ 100 µg/mL

Answered cases to consult:
{"columns": ["Compound", "Answer label"],
 "data": [
  ["CCOc1c(C(=O)O)cnn1-c1cccc(-c2cccc(C)c2OCc2ccc3c(c2)OCCN(C2CCOCC2)C3)n1 [Compound 131]", "interval 3"],
  ["Cc1cccc(-c2cccc(-n3ncc(C(=O)O)c3OC(C)C)n2)c1OCc1ccc2c(c1)CCN(C1CCCOC1)C2 (centres unmarked) [Compound 42]", "interval 2"],
  ["COc1c(C(=O)O)cnn1-c1cccc(-c2cccc(F)c2OCc2ccc3c(c2)CCN(C2CCOCC2)C3)n1 [Compound 63]", "interval 3"]
]}

Ask | Returns: class label. Input: CCOc1c(C(=O)O)cnn1-c1cccc(-c2cccc(C)c2OCc2ccc3c(c2C)CCN(C[C@H]2CCCCO2)CC3)n1 [Compound 214]
Reply | interval 1

Ask | State the class of the compound shown: COc1c(C(=O)O)cnn1-c1cccc(-c2cccc(C)c2OCc2cc(C)c3c(c2)CCN(C2CCOC2)C3)n1 (centres unmarked) [Compound 242]
Reply | interval 3
